assay_summary: amyloid nucleation score (Sup35N fusion, yeast selection) (log enrichment); library NNK1; higher = more nucleation; inactive = no reads after selection;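 note: zero at mode of non-aggregating sequences after 7 days selection at 30°C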
Provide the recorded amyloid nucleation score for the entries that follow.
The reply should be a number, written without any unit.

Determine its reported amyloid nucleation score: FTLYYFLSC
0.406

Query amyloid nucleation score for KRFLSYWRFSWGWYIAQACG
-0.68

Specify reported amyloid nucleation score for the substance shown: LVISSRREKR
0.009

# return recorded amyloid nucleation score for entry TVDKTYFFYIVDCNVDKPGD
1.08

Assign amyloid nucleation score to the following record: YASTSMWVP
-0.401

Identify amyloid nucleation score associated with the substance NVSKDS
-0.063

Kindly indicate its recorded amyloid nucleation score. Item: PYHIKLLQR
1.44

Query amyloid nucleation score for TLGTSGTSSV
-0.544

Please report amyloid nucleation score for the following substance: FRLVYNNFAIT
-1.78

Report amyloid nucleation score for PMSLPTYLRIPRFVLLAWAE
-0.034

Tell us which amyloid nucleation score value is on record for VNLGKNFTQLLIGRCVSKVR
0.417

State, in one line, measured amyloid nucleation score of RNQVRDSRVISGPNFSSMKK
-0.51

// fetch amyloid nucleation score given entry SCYTVYQLGLDVGRGVDLEF
-0.013

Return amyloid nucleation score (reported value) for this substance: RCDYVEWIWYPCYRRNGVCR
0.171

Look up and state reported amyloid nucleation score for FKGRNSFPLLDSWVIHRIGI
0.422

Identify the reported amyloid nucleation score for the following entry. VALIRGRD
0.292

Given the substance REWIYLVVETPCYFVDDVMD , write its reported amyloid nucleation score.
-0.71

State, in one line, measured amyloid nucleation score of PYFLNCRPLRA
0.815

Using known records, supply amyloid nucleation score for FLYVLDSVSCQ
0.648

Return amyloid nucleation score (reported value) for this substance: PVKVWARTVQSVAWLFSCG
-0.016

Identify measured amyloid nucleation score corresponding to YKVSKMNRRDTNGNLVNRRV
-0.211

For the substance SNKTSKDGCEFQVVQLVQRV , give its measured amyloid nucleation score value.
-0.059

Item RLRDIG : provide amyloid nucleation score
-0.684

Return value of amyloid nucleation score for input ARLDRSFR , no commentary.
0.451

Let me know recorded amyloid nucleation score for GKYKTFKNNITP , thanks.
-0.416

Recall and state the measured amyloid nucleation score for DNTIYDSMCFDAGNPDLCIH .
0.439

# return recorded amyloid nucleation score for input LVGTTRLMRFWSRVMT
-0.171

Give amyloid nucleation score for VHNTRYSHVPNKKMRSVIRK
1.44

Tell me amyloid nucleation score reported for LCLGLHSNLSLSMLRLLVLE
-0.482

Provide amyloid nucleation score value for the following substance: FFTIQMGYMALGMW
1.16

Using the record for WSRCSFFGHRYIKSSLLIWG , state its measured amyloid nucleation score.
-0.139

Note down amyloid nucleation score recorded for TALRLTSSSIKIATQVDLKF
2.06

Fill in reported amyloid nucleation score for this entry: TAGRVITSCWQVLILLVNCG
-0.605

Fill in reported amyloid nucleation score for this entry: FTSLNVRKLRGACRTTSSHG
-0.077

Give amyloid nucleation score for FIFCAGCVENNTSSPK
6.22

Return reported amyloid nucleation score. Input substance: LHRSRFHDNTTSNGLLKGTV
-0.574

Given the substance YEFLIWVCPTALRRVVSSVV , write its reported amyloid nucleation score.
0.189

Provide only the value of recorded amyloid nucleation score for LLSHQVTPSGRYSFSLCKSW
0.873

Write down amyloid nucleation score measured for item DLRSSGFDTELILQVSVQLL
-0.264

Indicate its recorded amyloid nucleation score; the substance in question is LMWCGSANMY
0.632

Please report the measured amyloid nucleation score for LVVFLNC
-0.607

Please list amyloid nucleation score recorded for the substance LSRTKGYC
0.558

Read the entry VLKDFYNDDKRFQRRL and write its reported amyloid nucleation score.
0.421

// fetch amyloid nucleation score given entry ISKFFYLVW
0.097

Identify amyloid nucleation score associated with the substance GNFMVW
-0.403

Give the reported amyloid nucleation score for this substance. SDELWLLQFPVLNNKLWEK
0.726

Tell me amyloid nucleation score reported for GAVPDPKVVGMGFQMGAVNS
0.877

Name the recorded amyloid nucleation score of the item LTISTYSCWGEF in your answer.
0.456

Give amyloid nucleation score for DLCQEPIG
-0.379

Quick one: give measured amyloid nucleation score for ICMILVPFMPT
0.976

Please report amyloid nucleation score for the following substance: QDVKSMCQPFMILMVVSGGL
-0.101

For the substance PIKAPLGASCGFAVRVTRTM , report amyloid nucleation score.
0.391

Name the recorded amyloid nucleation score of the substance listed here: YFCPLKCVMPENDCPFPMVM
0.416

Using the record for KCHLFKHLL , state its measured amyloid nucleation score.
1.66

Provide measured amyloid nucleation score value, entry: FKAHRMVLHGYIGSMERG
-0.186

# return recorded amyloid nucleation score for input LKRMFFSNVLFFGSMIAGNR
0.162

Please look at this substance and report its amyloid nucleation score: CPLTGDRTAVRHMRKSAFAE
-0.525

Identify the reported amyloid nucleation score for the following entry. YHTNTGDDPSCPRPSTSYSG
1.98

Give the value of amyloid nucleation score reported for the following: PRMFIWMCDRDDVSMYQEFL
0.48

Give amyloid nucleation score for AWAKFCCSD
-0.012

Determine its reported amyloid nucleation score: IYVYQLSFCCKAY
0.235

Return value of amyloid nucleation score for input SYVDRVLSSRSRWMKIVELN , no commentary.
0.083

Please report amyloid nucleation score for the following substance: IVNAKLSWSYPGIIRLCHCE
0.43

Retrieve amyloid nucleation score measured for LLRWLRTVVSGGCVSVNLVE and print it.
0.034

State its amyloid nucleation score for this substance: CQSGMSDDEGGQGRFVKCMG
0.114
